Kindly supply the reported melting point values for the records listed here.

# melting point (compound: "O=Ic1ccccc1" ) is 199 to 201 °C

# melting point (compound: "O=C(CCl)Nc1cc(C(F)(F)F)ccc1N1CCOCC1" ) is 155 to 157 °C

# melting point (compound: "NNC(=O)c1ccc2c(=O)n3c(nc2c1)CCC3" ) is 268 to 270 °C

# melting point (compound: "N#CSCC(=O)c1ccccc1Cl" ) is 56 to 58 °C

# melting point (compound: "Clc1cc(-c2cccnc2)nc2ncnn12" ) is 175 to 177 °C

# melting point (compound: "NNC(=O)Cc1cccs1" ) is 64 to 66 °C
